Each entry below carries its reported mean relative fluorescence intensity at 100 µM peptide.
molecular target: T1, HLA-A*0201 molecule expressed on human T2 cells (human); assay: T2 cell HLA-A*0201 binding assay, anti-HLA-A2-PE flow cytometry
T1 construct: surface HLA-A2 detected with anti-HLA-A2-PE (clone REA517); also called HLA-A2
endpoint.name: mean relative fluorescence intensity at 100 µM peptide

{"binder": "YLYDVRTAL (also called ENT168_B2) [UBE2C-B11]", "endpoint.value": "87.5 % of HIV pol reference peptide"}
{"binder": "LILDTVHSL (also called ENT174_B1) [ANKRD30A-B2]", "endpoint.value": "90.8 % of HIV pol reference peptide"}
{"binder": "ALIFGQLLL (also called ENT205_B1; ENT_205-B1) [TOP2A-B2]", "endpoint.value": "146 % of HIV pol reference peptide"}
{"binder": "ALYDVRTIL (also called ENT168-H) [UBE2C-H1]", "endpoint.value": "134 % of HIV pol reference peptide"}
{"binder": "ALYSEILTV (also called ENT169_B1; ENT_169-B1) [ANKRD30A-B1]", "endpoint.value": "88.2 % of HIV pol reference peptide"}
{"binder": "ALYDVRTILL (also called UBEC2-H11; ENT168-HL) [UBE2C-H11]", "endpoint.value": "135 % of HIV pol reference peptide"}
{"binder": "ALIFGQLLT (also called ENT205-H) [TOP2A-H2]", "endpoint.value": "0 % of HIV pol reference peptide"}
{"binder": "KILDTVHSC [ANKRD30A-H2]", "endpoint.value": "52.3 % of HIV pol reference peptide"}

meta.source: patent US20250205324A1
